The measurements presented in this section are drawn from patent US20240132431A1.

Molecular target: Bcl-2 protein (Recombinant Human Bcl-2 Protein) (Homo sapiens)
Construct: purchased Novus NBP2-34889
Assay: Binding evaluation of mixture library compounds to Bcl-2 using AS-MS (affinity selection mass spectrometry)
Settings: AS-MS, mixture library, Bcl-2; replicate n = 2; ASMS Ratio(%)=(A−C)/B×100
We begin with a simple list: items and their reported ASMS ratio (%) n = 2.

# molecule, unit text, ASMS ratio (%) n = 2
records = [
    ("CCOc1cccc(-c2cc(CN3CCN(c4ccc(C(=O)NS(=O)(=O)c5ccc(NCCSc6ccccc6)c([N+](=O)[O-])c5)nn4)CC3)cc(C(F)(F)F)c2)c1 [B2Q087-01]", "%", "−2.1"),
    ("CCOc1cncc(C#Cc2ccccc2CN2CCN(c3ccc(C(=O)NS(=O)(=O)CC45CC6CC(CC(C6)C4)C5)cc3)CC2)c1 [B2A070-01]", "%", 0.0),
    ("CCOc1cncc(-c2cc(CN3CCN(c4ccc(C(=O)N(CC)CC)nn4)CC3)cc(OC(C)C)c2)c1 [B4J084-01]", "%", "−0.6"),
    ("CCOc1cncc(-c2ccc(C(C)N3CCN(c4ccc(C(=O)N(CC)CC)cc4)CC3)c(F)c2)c1 (stereo not shown) [B4J100-01]", "%", 0.0),
    ("CCOc1cccc(-c2ccc(CN3CCN(c4ccc(C(=O)NS(=O)(=O)c5ccc(NCCSc6ccccc6)c([N+](=O)[O-])c5)nn4)CC3)c(CC)c2)c1 [B2Q075-01]", "%", 0.0),
    ("CCOc1cncc(-c2csc(CN3CCN(c4ccc(C(=O)NS(=O)(=O)CC56CC7CC(CC(C7)C5)C6)nn4)CC3)c2)c1 [B2A094-01]", "%", 0.0),
    ("CCOc1cncc(-c2cnn(-c3cc(C(=O)N4CCN(c5ccc(C(=O)NS(=O)(=O)CC67CC8CC(CC(C8)C6)C7)cc5)CC4)cc(C(F)(F)F)c3)c2)c1 [B2A044-01]", "%", "−0.2"),
    ("CCOc1cccc(C#Cc2cncc(C(=O)N3CCN(c4ccc(C(=O)NS(C)(=O)=O)nn4)CC3)c2)c1 [B2I009-01]", "%", 0.0),
    ("CCOc1cncc(-c2ccc(C(=O)N3CCN(c4ccc(C(=O)NS(C)(=O)=O)nn4)CC3)cc2F)c1 [B2I006-01]", "%", 0.0),
    ("CCOc1cccc(C#Cc2cc(C(=O)N3CCN(c4ccc(C(=O)NS(=O)(=O)CC56CC7CC(CC(C7)C5)C6)nn4)CC3)cc(C(F)(F)F)c2)c1 [B2A019-01]", "%", 5.0),
    ("CCOc1cccc(-c2ccc(C(C)N3CCN(c4ccc(C(=O)NS(=O)(=O)CC56CC7CC(CC(C7)C5)C6)cc4)CC3)c(F)c2)c1 (stereo not shown) [B2A099-01]", "%", 0.0),
    ("CCOc1cncc(-c2ccc(CN3CCN(c4ccc(C(=O)NS(=O)(=O)c5ccc(NCCSc6ccccc6)c([N+](=O)[O-])c5)cc4)CC3)c(OC)c2)c1 [B2Q054-01]", "%", 65.0),
    ("CCOc1cccc(-c2cc(CN3CCN(c4ccc(C(=O)NS(=O)(=O)c5ccc(NCCSc6ccccc6)c([N+](=O)[O-])c5)cc4)CC3)cc(OC(F)(F)F)c2)c1 [B2Q063-01]", "%", "−25.5"),
]

###

Target: Bcl-2 protein (Recombinant Human Bcl-2 Protein) (Homo sapiens, UniProt P10415)
Construct: purchased Novus NBP2-34889
Sequence (P10415 whole entry): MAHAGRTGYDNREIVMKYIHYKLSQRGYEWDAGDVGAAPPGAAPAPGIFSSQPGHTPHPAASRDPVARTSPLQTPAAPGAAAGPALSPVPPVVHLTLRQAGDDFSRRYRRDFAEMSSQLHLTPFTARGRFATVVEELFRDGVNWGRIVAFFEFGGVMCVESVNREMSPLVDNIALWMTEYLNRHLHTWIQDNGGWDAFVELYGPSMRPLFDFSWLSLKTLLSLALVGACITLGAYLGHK
Assay: Binding evaluation of mixture library compounds to Bcl-2 using AS-MS (affinity selection mass spectrometry)
Details: AS-MS on the mixture of 1200 library compounds; ASMS Ratio(%)=(A−C)/B×100; replicate n = 2

# sample smiles, ASMS ratio (%) n = 2
data = [
    ("CCOc1cccc(-c2ccc(CN3CCN(c4ccc(C(=O)N(C)CC56CC7CC(CC(C7)C5)C6)nn4)CC3)c3ccccc23)c1", "−16.5"),
    ("CCOc1cncc(C#Cc2cncc(C(=O)N3CCN(c4ccc(C(=O)N(C)CC56CC7CC(CC(C7)C5)C6)nn4)CC3)c2)c1", 0.0),
    ("CCOc1cccc(-c2ccc(CN3CCN(c4ccc(C(=O)N(C)CC56CC7CC(CC(C7)C5)C6)cc4)CC3)cc2F)c1", "−4.2"),
    ("CCOc1cccc(-c2ccc(C(=O)N3CCN(c4ccc(C(=O)Nc5ccc(OC)cc5)nn4)CC3)c3ccccc23)c1", "−4.0"),
    ("CCOc1cccc(C#Cc2ccccc2C(=O)N2CCN(c3ccc(C(=O)Nc4ccc(OC)cc4)nn3)CC2)c1", 0.9),
    ("CCOc1cccc(-c2cnn(-c3cc(C(=O)N4CCN(c5ccc(C(=O)N(C)CC67CC8CC(CC(C8)C6)C7)nn5)CC4)cc(C(F)(F)F)c3)c2)c1", "−8.4"),
    ("CCOc1cccc(C#Cc2cc(C(=O)N3CCN(c4ccc(C(=O)Nc5ccc(OC)cc5)nn4)CC3)cc(C(F)(F)F)c2)c1", 0.2),
]

###

# ASMS ratio (%) n = 1 values compiled below
Target: Bcl-2 protein (Recombinant Human Bcl-2 Protein) (Homo sapiens)
Construct: purchased Novus NBP2-34889
Experiment: Binding evaluation of mixture library compounds to Bcl-2 using AS-MS (affinity selection mass spectrometry)
Conditions: AS-MS, mixture of 1200 compounds, Bcl-2; ASMS Ratio(%)=(A−C)/B×100; replicate n = 1

# compound, unit text, ASMS ratio (%) n = 1
records = [
    ("CCOc1cccc(-c2cc(CN3CCN(c4ccc(C(=O)NCC56CC7CC(CC(C7)C5)C6)nn4)CC3)cc(OC(F)(F)F)c2)c1", "%", 0.0),
    ("CCOc1cccc(-c2cnn(-c3cc(C(=O)N4CCN(c5ccc(C(=O)NCC(F)(F)F)cc5)CC4)cc(C(F)(F)F)c3)c2)c1", "%", 3.8),
    ("CCOc1cncc(-c2ccc(C(=O)N3CCN(c4ccc(C(=O)NCC(F)(F)F)nn4)CC3)cc2F)c1", "%", "−0.6"),
    ("CCOc1cccc(C#Cc2ccccc2CN2CCN(c3ccc(C(=O)NCC(F)(F)F)nn3)CC2)c1", "%", 3.5),
    ("CCOc1cccc(-c2cc(CN3CCN(c4ccc(C(=O)NCC56CC7CC(CC(C7)C5)C6)cc4)CC3)cc(OC(F)(F)F)c2)c1", "%", "−1.0"),
    ("CCOc1cccc(-c2ccccc2CN2CCN(c3ccc(C(=O)NCC45CC6CC(CC(C6)C4)C5)nn3)CC2)c1", "%", "−0.3"),
    ("CCOc1cncc(C#Cc2cc(C(=O)N3CCN(c4ccc(C(=O)NCC56CC7CC(CC(C7)C5)C6)nn4)CC3)cc(C(F)(F)F)c2)c1", "%", "−4.3"),
    ("CCOc1cccc(-c2ccc(C(C)N3CCN(c4ccc(C(=O)NCC56CC7CC(CC(C7)C5)C6)cc4)CC3)cc2)c1 (centres unmarked)", "%", 3.2),
    ("CCOc1cncc(-c2ccc(C(C)N3CCN(c4ccc(C(=O)NCC(F)(F)F)cc4)CC3)c(F)c2)c1 (centres unmarked)", "%", 0.0),
    ("CCOc1cccc(-c2ccc(C(=O)N3CCN(c4ccc(C(=O)NCC(F)(F)F)cc4)CC3)cc2C)c1", "%", 0.3),
    ("CCOc1cccc(C#Cc2cncc(C(=O)N3CCN(c4ccc(C(=O)NCC56CC7CC(CC(C7)C5)C6)nn4)CC3)c2)c1", "%", 3.0),
    ("CCOc1cncc(C#Cc2ccccc2CN2CCN(c3ccc(C(=O)NCC45CC6CC(CC(C6)C4)C5)cc3)CC2)c1", "%", 0.0),
    ("CCOc1cccc(-c2ccc(CN3CCN(c4ccc(C(=O)NCC56CC7CC(CC(C7)C5)C6)nn4)CC3)c(OC)c2)c1", "%", 3.9),
    ("CCOc1cccc(-c2ccc(CN3CCN(c4ccc(C(=O)NCC(F)(F)F)nn4)CC3)c3ccccc23)c1", "%", 3.6),
]

###

Molecular target: Bcl-2 protein (Recombinant Human Bcl-2 Protein) (Homo sapiens)
Construct: purchased Novus NBP2-34889
Assay: Binding evaluation of mixture library compounds to Bcl-2 using AS-MS (affinity selection mass spectrometry)
Details: AS-MS, mixture of 1200 compounds, Bcl-2; ASMS Ratio(%)=(A−C)/B×100; replicate n = 1
endpoint label: ASMS ratio (%) n = 1

# sample smiles, value observed
data = [
    ("CCOc1cncc(C#Cc2ccccc2C(=O)N2CCN(c3ccc(C(=O)NCC(F)(F)F)nn3)CC2)c1", 0.0),
    ("CCOc1cncc(-c2cc(OC)c(CN3CCN(c4ccc(C(=O)NCC(F)(F)F)cc4)CC3)c(OC)c2)c1", 0.0),
    ("CCOc1cncc(-c2cc(CN3CCN(c4ccc(C(=O)NCC56CC7CC(CC(C7)C5)C6)nn4)CC3)cc(OCC)c2)c1", 3.0),
    ("CCOc1cccc(-c2cc(C(=O)N3CCN(c4ccc(C(=O)NCC(F)(F)F)nn4)CC3)cc(C(C)(C)C)c2)c1", 2.9),
    ("CCOc1cccc(-c2cc(CN3CCN(c4ccc(C(=O)NCC(F)(F)F)nn4)CC3)cc(C(F)(F)F)c2)c1", 1.8),
    ("CCOc1cccc(-c2ccc(C(=O)N3CCN(c4ccc(C(=O)NCC(F)(F)F)nn4)CC3)c3ccccc23)c1", 0.0),
    ("CCOc1cncc(-c2ccc(C(=O)N3CCN(c4ccc(C(=O)NCC56CC7CC(CC(C7)C5)C6)cc4)CC3)c3ccccc23)c1", 0.4),
]
